src = the supplement of paper PMC9170038

Tested on: MS2 coat protein
Assay Method Text: apparent KD of MS2 coat protein; designed switch direction (-1 OFF switch, 1 ON switch): -1; higher = weaker reporter binding
Condition Info: input ligand: microRNA oligo, concentration not stated
Each entry gets -1 if its apparent KD of MS2 coat protein stays under 0.03 µM, and 1 if its apparent KD of MS2 coat protein is 0.03 µM or above.

| Item Sequence | Group Label |
| --- | --- |
| AGCUAACGAACAGGAUAUCCAAAGCGAUAGCAGGGAGAAGGGUUCAGAACUUGAGGAUCACCCAAGUGGGCUGAGCUCGGGAAA [Mutated MS2 EX1.3] (Eterna round: R96, puzzle: Exclusion NG 1) | -1 |
| UUAAUUAAUUUAAUAUAAGAUCACAUGAGGAUCACCCAUGUAUAGGAUAUCAGCUCGUGUAGAGCUGAGAAGGAUACAUAAUAU [ExNG3/2-B3] (Eterna round: R96, puzzle: Exclusion NG 3) | 1 |
| AAACUGAGGCUUUGCUUUAGUCGUACAUGAGGAUCACCCAUGUAGGAUAUGGUAGGCUUUGCUUACCAGAAGGACAGAGUGAUC [JL EXNG3 1.20] (Eterna round: R96, puzzle: Exclusion NG 3) | 1 |
| UUGUUACGAUUAGGAUAUUAUAGAUUGAAUAGUAUGAUUUACAUGAGGAUCACCCAUGUUACAUUUAAGAAGGAAUCGAAUUAU [JR_ExcNG2_Sub089] (Eterna round: R96, puzzle: Exclusion NG 2) | -1 |
| UACAUGAGGAUCACCCAUGUUUUGUCGUGUAUGGUAUUUAUCUAGGAUAUCAAGUUAUUUAGUUAUGAGAAGGAGAAUAUUAAU [JMF's solution 35] (Eterna round: R96, puzzle: Exclusion NG 3) | 1 |
| ACGUGAUAUCUGUCGGUGGACAUGAGGAUCACCCAUGUAAGCUUUUUGCUUGUCUUAUAACCCGGUGACAGACCUUC [Inxeer] (Eterna round: R96, puzzle: Sensor v3, turn-off variant 1) | 1 |
| GGUACUCAAAGAGUACCAAUACGAACAUGAGGAUCACCCAUGUAGGAUAUGCUACUCAAAGAGUAGCAGAAGGACGUGUGCCUU [Far Half Aptamer v4] (Eterna round: R96, puzzle: Exclusion NG 3) | -1 |

###

Tested on: MS2 coat protein
Assay Method Text: apparent KD of MS2 coat protein; higher = weaker reporter binding
Condition Info: Eterna round: R107; input ligand: none

Item Sequence	apparent KD of MS2 coat protein / nM
UCGGGCAGAGCGGCCGCCACUGUUUGGCGUGCGGAUGACGGAACAUGAGGAUCACCCAUGUUGAUUAGGACCGGGCUUGCGGAGA [qpqullin]	14.7
AAUACCGGUCCUCGAAGUGAUCCUCAUGAACGAGGACCGGUACGGCCGCCACUCGAUAACAUGAGGAUCACCCAUGUAAUAAUAA [|T'-M'-Trp-Ms2|_Design4]	63.9
GGACUAACCAGAAGGAGCGACACGCAGAAACUGCAAAAUCCUCCGCACGAGGAUCACCCGUGUCAGGUAGGUCGCUGGUUAGUCG	54.3
GGUGGCGUGACGGAUACCAGCCACCGCCGCAAGGCAACAUGAGGAUCACCCAUGUUGGGUGGCCCUUGGCAGCUGUCGUGCGGCG [#1 Same State - Theophylline B Attempt #22 (HarryS)]	195
AAUAAGAUGAGGAUCACCCAUCUAAAAGAUACCAGAGUGAUGAUCCUCCCUUGGCAGCUUAACGCUGAUUGAUUACAAUCAGCGA	47.2
GUAUCGACAUGAGGAUCACCCAUGUCCGAAGGAGCGUUGGGAACAACAGGUAGGUCGCGGACAUAGAGCAUCCGGAAACGGAUGC [EAA NP+V+V2 #1]	14

###

System: MS2 coat protein
Assay Method Text: apparent KD of MS2 coat protein; designed switch direction (-1 OFF switch, 1 ON switch): -1; higher = weaker reporter binding
Condition Info: input ligand: none
Below, each entry is listed alongside its reported apparent KD of MS2 coat protein.

| Item Sequence | apparent KD of MS2 coat protein |
| --- | --- |
| CUGAAAGACGAAGGAUAUCCAGGCGCCGGCGUAGGAGAAGGUCGUCCGGGUGUCCUAGAACUUGAGGAUCACCCAAGUAGAAGA [Mutated MS2 EX1.14] (Eterna round: R96, puzzle: Exclusion NG 1) | 53.1 nM |
| ACAUGAGGAUCACCCAUGUACAGGGUUUAGUUUCAUCGUUUGAAGGAUAUACUCCGUUAGUUGUCGUAGAAGGUCACAGUUUGG [JR_ExcNG3_Sub007] (Eterna round: R96, puzzle: Exclusion NG 3) | 178 nM |
| GUCGGGCAAGGAUAUGUAGCACUCUACAUGAGGAUCACCCAUGUGAGCCUGCAUGGUGCGACAGAAGGUGCAAAAG [Enencear] (Eterna round: R97, puzzle: Exclusion 5) | 361 nM |
| AAAUCGAGACGGAGAUCCGACAUGAGGAUCACCCAUGUCUCGUAAGCUUUUUGCUCGUCUUAUACUCCUCUGUUCUC [Elimod 50 - Jieux - Sensor, turn-off variant 1] (Eterna round: R97, puzzle: Sensor, turn-off variant 1) | 22.4 nM |

###

System: MS2 coat protein
Assay Method Text: apparent KD of MS2 coat protein; designed switch direction (-1 OFF switch, 1 ON switch): -1; higher = weaker reporter binding
Condition Info: input ligand: microRNA oligo, concentration not stated

| Item Sequence | apparent KD of MS2 coat protein, µM |
| --- | --- |
| AAGUACCGUCACGAUAGUGAUGGUACAACAAGCAUGUAAACAUGAGGAUCACCCAUGUCCUCAAUUGCUCGUCUUAU [Sensor 3 - 68] (Eterna round: R96, puzzle: Sensor v3, turn-off variant 2) | 0.809 |
| AUCAGCUCGUGAGGAUAUACAUGCGUGCUUCGGCACGUAUGAUAGAUCACAUGAGGAUCACCCAUGUAGAAGGCACGAGCUGAU [ENG2/4-A3] (Eterna round: R96, puzzle: Exclusion NG 2) | 0.0121 |
| ACAUGAGGAUCACCCAUGUGAAACCAAUGGCUGACUUUGAGCUAGGAUAUUCGUGCAUAUCAAACGAAGAAGGAGCAUUACUGG [Deportation 97 - Jieux - Exclusion NG 3] (Eterna round: R96, puzzle: Exclusion NG 3) | 0.0315 |
| CCGAAGUCCUGCGGAGUUCACAUGAGGAUCACCCAUGUAGGCGAGGAUAUUUAUGAUACAUGAGUAAAGAAGGCGUCUGGUAAA [Eternabot solution 26] (Eterna round: R96, puzzle: Exclusion NG 3) | 0.0182 |
| ACAUGUUGCGCAGGAUAUGGGACACAUGAGGAUCACCCAUGUGGCUACAUGUCAUACCAAGCGUCUCAGAAGGGUGUUAACAUG [Ex NG2 #36] (Eterna round: R96, puzzle: Exclusion NG 2) | 0.014 |
| UCUCGUUGGCAAGGAUAUCCUACAUUGUUCUGGCCCGGGCAUGCUACAUGAGGAUCACCCAUGUGGGAGAAGGUGCGCCACUGC [Design 25] (Eterna round: R96, puzzle: Exclusion NG 2) | 0.0676 |
| AGCUAGUGAGGAUAUACAAGAAUAUAAACGAACAUAAAGGGACAUGAGGAUCACCCAUGUAGAAGGCACUAGCA [Diamond 73] (Eterna round: R96, puzzle: Exclusion 2) | 0.0293 |
| UUUGAAUAGGUAGGAUAUACUUUCAAUUUUCUUUUCCUUACAUGAGGAUCACCCAUGUUUACAUUGUAGAAGGACCUCAUUGAU [JR_ExcNG2_Sub048] (Eterna round: R96, puzzle: Exclusion NG 2) | 0.193 |
| CGAUGCUCGUGCCCACAUGAGGAUCACCCAUGUCGAGUCAGCGAGGAUAUCGGUGGCACAUAGUACGAGAAGGCGCGGACCUGA [Ex NG3 #18] (Eterna round: R96, puzzle: Exclusion NG 3) | 0.0115 |

###

Tested on: MS2 coat protein
Assay Method Text: apparent KD of MS2 coat protein; designed switch direction (-1 OFF switch, 1 ON switch): -1; higher = weaker reporter binding
Condition Info: Eterna round: R95; input ligand: microRNA oligo, concentration not stated
Experimental Endpoint: apparent KD of MS2 coat protein

| Item Sequence | Experimental Endpoint | Endpoint Result |
| --- | --- | --- |
| UGCAUGGUAGGAUAUACGGAGCAUUAGGGUUUGUUAUGUGGACAUGAGGAUCACCCAUGUAGAAGGGCCGUGCU [JL-ex2-2.16 mat747 mod] (puzzle: Exclusion 2) | apparent KD of MS2 coat protein | 32.6 nM |
| CUGAGGUAGCGGUCCUAUGACAUGAGGAUCACCCAUGUGCCUUGCUACAAGCUUUUUGCUCGUCUUAUGAUUCUCGG [JL Atriat mod 9] (puzzle: Sensor v3, turn-off variant 1) | apparent KD of MS2 coat protein | 107 nM |
| CUAGUCCGAGGAUAUAUUAAGUGAUACAUGAGGAUCACCCAUGUUAUUUAAUGGAUAUUAAUAGAAGGCGGACUAG [Mat - Exclusion 5 - JL mod - D78] (puzzle: Exclusion 5) | apparent KD of MS2 coat protein | 32.1 nM |
| UUAAUGUGAGGAUAUGGUAAAGAUAGAAUGAUGAAAGAACUCCAGAAGGCACAUGAGGAUCACCCAUGUAGAUG [Mat - Exclusion 4 - Mod of JL - D28] (puzzle: Exclusion 4) | apparent KD of MS2 coat protein | 30.5 nM |
| CGUGCGUAUGUGAGGAUAUGCUGGUCCUUGGAUCAGCAGAAGGCACAUGAGGAUCACCCAUGUGGUGUCGUACG [salish99_Bmod_Ex4_018] (puzzle: Brourd's mod of Exclusion 4) | apparent KD of MS2 coat protein | 182 nM |
| GUAGCUUCGGCUACUACAAGCUUUUUGCUCGUCUUAUUAACAUGAGGAUCACCCAUGUUAAUGAGACCUCAUGUAUU [Sensor v3 - turn-off variant 2 - 6] (puzzle: Sensor v3, turn-off variant 2) | apparent KD of MS2 coat protein | 17 nM |
| AAUUGCUAGCCGAUCCUCCACAUGAGGAUCACCCAUGUGCUCGUCUUGUAAUGUGCUAUCACGAAAGUGAUAGUACA [Sensor v3, turn-off variant 1 (MOD of Eli's v1-59 v.4)] (puzzle: Sensor v3, turn-off variant 1) | apparent KD of MS2 coat protein | 13.4 nM |
| GCCGAUUAAGUCAGGAUAUACCUAUGGAUACAUAGGUAGAAGGGACAUGAGGAUCACCCAUGUUCCUCAGCGGC [Fiskers BMX 4 - 14] (puzzle: Brourd's mod of Exclusion 4) | apparent KD of MS2 coat protein | 14.5 nM |
| GUCGCUAGAGGAUAUACAAUGGUAUAUGAUCCUAGUGACAUACAUGAGGAUCACCCAUGUAGAAGGCUAGUAUU [Exclusion 2 - 8] (puzzle: Exclusion 2) | apparent KD of MS2 coat protein | 23.7 nM |
| GCGAUAAACGAGGAUAUCGUAUCGGAAACGAUACGAGAAGGUGUAACAUGAGGAUCACCCAUGUUCCUCAACGC [Mat - Exclusion 6 - Eli Mod - D65] (puzzle: Exclusion 6) | apparent KD of MS2 coat protein | 36.3 nM |
